Target Or System: T1, human PD-L2 (full-length, on cells) (human, UniProt Q9BQ51 20-273)
T1 chain: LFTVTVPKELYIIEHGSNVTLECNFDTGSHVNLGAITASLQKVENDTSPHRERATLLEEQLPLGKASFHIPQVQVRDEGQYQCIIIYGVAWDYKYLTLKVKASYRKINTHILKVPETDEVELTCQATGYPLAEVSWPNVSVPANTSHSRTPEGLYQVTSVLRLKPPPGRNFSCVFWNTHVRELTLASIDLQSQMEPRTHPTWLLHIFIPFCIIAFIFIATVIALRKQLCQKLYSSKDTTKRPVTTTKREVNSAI
Assay Notes: FACS, CHO-K1 expressing human PD-L2
Quantity: EC50 (pM)
Numbers only; they are read as pM.

Please report the recorded EC50 for 9A3-C7 (antibody, V domains shown, Both formats under this entry) VH: QVQLVESGGGLVKPGGSLRLSCAASGFSLSDYYMSWIRQAPGRGLEWVSYISSSGSTIYYVDSVKGRFTISRDNAKNSLYLQINSLRAEDTAVYHCARAQWLPDFDYWGQGTLVTVSS VL: QSALTQPPSASGSPGQSVTISCTGTSSDVGGYNYVSWYQHHPGKVPKLMIYEVSKRPSGVPDRFSGSKSGNTASLTVSGLQAEDEADYYCTSFADNNNVGFGGGTKLTVLG . 872

Continue with 7H5-C5 (antibody, V domains shown, Both formats under this entry) VH: QVQLVESGGGLVKPGGSLRLSCAASGFSLSDYYMSWTRQAPGRGLEWVSFISSSGSTIYYVDSVKGRFTISRDHAKNSLYLQINSLRAEDTAVYYCARAQWLPDFDYWGQGTLVTVSS VL: QSALTQPPSASGSPGQSVTISCTGTSSDVSGYNYVSWYQHHPDKAPKLLIYEVNKRPSGVPARFSGSKSGNTASLTVSGLQAEDEADYYCTSFADNNNVVFGGGTKLTVLG 765

Continue with 12A1-D4 (antibody, V domains shown, Both formats under this entry) VH: QVQLQESGPGLVKPSGTLSLTCAVSGGSISSNNWWSWVRQPPGKGLEWIGEIFHVGSTNYNPSLKSRVTISVDKSKNQFSLKLSSLTAADTAVYYCARMVGATGHYYGMDVWGQGTTVTVSS VL: DIQLTQSPSFLSASVGDRVTITCRASQGISSSLAWYQQKPGKAPKFLIYAASTLQSGVPSRFSGSGSGTEFTLTISSLQPEDFATYYCQQLNSYPKSWTFGQGTKVEIK 265
